Data origin, for the record: patent US20190010227A1

- measured target: T1, ECD of rec. EGFR (human, UniProt P00533 25-645)
- T1 construct: extracellular domain; also called human epidermal factor receptor (EGFR)
- assay procedure: SPR (BIAcore), chip coated with ECD of rec. EGFR
measure: kon
Enter the number, and then the unit.

// solved cases for kon follow
binder	endpoint result
Humanized LA22 (H3 + h2) (antibody, V domains shown, also called hLA22; hLA22 h2H3) VH: EVQLVESGGGLVQPGGSLRLSCASNEYEFPSHDMSWVRQTPGKGLEWVSAITSDGISTYYPDTMERRFTISRDNSKNTLYLQMSSLRAEDTAVYYCARHDWDEGFASWGQGTLVTVSS VL: DVVMTQSPLSLPVTLGQPASISCRSSQSLVHSNGNTYLHWYQQRPGQSPRLLIYKVSNRFSGVPDRFSGSGSGTDFTLKISRVEAEDVGIYFCSQSSHVPPAFGGGTKLEIK	16400 M⁻¹ s⁻¹
Humanized LA22 (H0 + h2) (antibody, human IgG1, V domains shown, Human IgG1 / kappa constant regions; also called HO-LA22 / h2-LA22) VH: EVQLVESGGGLVQPGGSLRLSCAASEYEFPSHDMSWVRQAPGKGLEWVSAITSDGISTYYPDTMERRFTISRDNSKNTLYLQMNSLRAEDTAVYYCARHDWDEGFASWGQGTLVTVSS VL: DVVMTQSPLSLPVTLGQPASISCRSSQSLVHSNGNTYLHWYQQRPGQSPRLLIYKVSNRFSGVPDRFSGSGSGTDFTLKISRVEAEDVGIYFCSQSSHVPPAFGGGTKLEIK	5200 M⁻¹ s⁻¹

Request: Please give the documented kon of Mouse monoclonal antibody LA22 (antibody, V domains shown, Mouse hybridoma antibody (ATCC deposit, US 5,459,061); the mouse constant regions are not; also called mLA22; mouse LA22) VH: EVQLVESGGGLVQPGESLKLSCESNEYEFPSHDMSWVRKTPEERLELVAAITSDGISTYYPDTMERRFLISRDNTKKTLYLQMSSLRSEDTALYYCSRHDWDEGFASWGQGTLVTVSA VL: DVVMTQTPLSLPVSLGDQASISCRSSQSLVHSNGNTYLHWYLQKPGQSPKLLIYKVSNRFSGVPDRFSGSGSGTDFTLKISRVEAEDLGIYFCSQSSHVPPAFGGGTKLEIK
Response: 22000 M⁻¹ s⁻¹
